assay: Agilent ZORBAX 300 SB-C18, 150 × 1 mm, 3.5 µm; A: water + 0.01% heptafluorobutyric acid; B: acetonitrile + 0.01% heptafluorobutyric acid; gradient (min/%B) 0/0 100/90; settings: stereoisomer not certain
Readout type: LC retention time (min)
Answer format: numeric, min implied, no suffix.

Cc1cnc[nH]1
5.66
Cc1[nH]c2ccccc2c1CCN1C(=O)C2CCCCC2C1=O (centres undefined)
14.3
O=C1C(=Cc2ccco2)C(=O)c2ccccc21
14

Field: next molecule
Data request, read-out LC retention time, for "COc1ccc(OC)c(NC(=O)Cn2c(=O)n(C)c(=O)n(C)c2=O)c1"
10.7

Cited source: the RepoRT retention time repository
